meta.source: PubChem BioAssay

study_system: Carbonic anhydrase 2 (Homo sapiens)
assay_overview: CAII small-molecule binders, profiling panel, biochemical, small-molecule microarray, Alexa647-labelled CAII (AID 1122)
condition_details: CAII-A647 binding fluorescence, higher = more signal
Listing of recorded composite z-score by entry.

CCCCCCc1nc(C2CC2)cc2c1[Si](C(C)C)(C(C)C)O[C@H]2c1ccccc1 ... -0.324
CC(C)[Si](C#CCCCC#N)(O[C@H](c1ccccc1)c1cn([C@H](CO)Cc2ccccc2)nn1)C(C)C ... 0.456
COc1ccccc1CN1C(=O)c2ccccc2[C@](Cc2ccccc2I)(C(=O)NCC(F)(F)F)[C@@H]1c1ccc(CO)cc1 ... 0.824

Prompt line: Hello, I am looking for reported composite z-score with Carbonic anhydrase 2 (Homo sapiens) for Cc1ccc(S[C@]2(C(=O)NCC(F)(F)F)CC(=O)N(Cc3ccccc3)[C@@H]2c2ccc(CO)cc2I)cc1 . Could you help?
Response line: 0.679

Prompt line: Field entry: COc1ccc([Si](C)(C)[C@H]2[C@H](CCn3cc([C@H](O)c4ccccc4)nn3)O[C@@]3(C(=O)N(Cc4ccc(N5C(=O)c6cccc7cccc5c67)cc4)c4ccccc43)[C@@H]2C)cc1
Response line: 0.193

Prompt line: Field entry: C=CCC(OC(C)=O)[C@@H]1[C@@H](N(Cc2cc3ccccc3o2)C(=O)c2ccc(-c3ccccc3)cc2)c2cc(OCCCO)ccc2N1C(=O)c1ccc2ccccc2c1 (some centres not stated)
Response line: -0.105

Prompt line: Field entry: CCOC(=O)C[C@H]1[C@H](OC(=O)Cc2ccc3c(c2)OCO3)[C@@H](NC(=O)CC(C)C)c2cc(OCCCO)ccc2N1C(=O)Cc1ccc(OC)cc1
Response line: 0.0138

---

study_system: E3 ubiquitin-protein ligase XIAP (Homo sapiens) (UniProt P98170)
Sequence (P98170 whole entry, looked up): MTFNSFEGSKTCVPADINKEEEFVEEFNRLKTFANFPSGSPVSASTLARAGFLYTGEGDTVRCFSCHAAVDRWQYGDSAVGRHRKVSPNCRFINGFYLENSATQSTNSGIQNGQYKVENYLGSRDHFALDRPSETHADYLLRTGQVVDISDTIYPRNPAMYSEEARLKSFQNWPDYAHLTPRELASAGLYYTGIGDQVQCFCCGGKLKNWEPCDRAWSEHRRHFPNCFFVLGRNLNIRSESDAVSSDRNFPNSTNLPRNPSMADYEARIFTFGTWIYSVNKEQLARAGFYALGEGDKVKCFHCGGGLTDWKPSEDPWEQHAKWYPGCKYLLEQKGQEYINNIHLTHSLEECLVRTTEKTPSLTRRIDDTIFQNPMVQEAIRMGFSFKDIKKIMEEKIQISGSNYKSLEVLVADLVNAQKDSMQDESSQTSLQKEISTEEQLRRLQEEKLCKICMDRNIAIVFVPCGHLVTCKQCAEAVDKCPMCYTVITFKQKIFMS
assay_overview: XIAP binders, primary screen, biophysical, small-molecule microarray, fluorescence 635 nm (AID 1181);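 further: score merges 667 nm emission and signal to noise over triplicate slides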
condition_details: small-molecule microarray binding, higher = more signal
Mark Criterion met for reported composite z-score of 0.1 or greater; mark Criterion not met for anything smaller.

COC(=O)[C@@]1(Cc2ccc(F)cc2)[C@H]2c3cc(C(=O)N4CCCC4)n(CCc4ccc(O)c(O)c4)c3C[C@H]2CN1C(=O)c1ccccc1 ... Criterion met
COC(=O)CCCCCCC(=O)Nc1ccc(NC(=O)CCCC[P+](c2ccccc2)(c2ccccc2)c2ccccc2)cc1 ... Criterion not met
CC(C)(C)N1CC=CC23O[C@@H]4C=CCCOC(=O)C4[C@H]2C(=O)N(CCO)[C@@H]3C1=O (stereo partly specified) ... Criterion not met
[N-]=[N+]=Nc1ccccc1[C@@H]1OC(c2ccc(OCCCO)cc2)=N[C@]1(Cc1ccccc1)C(=O)NCC(O)CO (stereo partly specified) ... Criterion met
Cn1cccc1C(O)C1C=CC2C(=O)NC(=O)C2N1Nc1ccc(Cl)cc1Cl (stereo unspecified) ... Criterion met
CC(C)C(CO)N1C(=O)[C@@H]2C3C(=O)OCCC/C=C\[C@H]3OC23C=CCN(C(C)(C)C)C(=O)[C@@H]13 (stereo partly specified) ... Criterion not met

Prompt line: In plain terms: is recorded composite z-score at least 0.1 for NC(=O)NCC#Cc1ccc2c(c1)[C@]1(C(=O)N2)[C@H](C(=O)NC[C@H](O)c2ccccc2)[C@H]2C(=O)O[C@H](c3ccccc3)[C@H](c3ccccc3)N2[C@@H]1c1ccc(OCCO)cc1 ?
Response line: Criterion met

Prompt line: Field entry: O=C1C=C(c2ccccc2)C(=O)c2ccc([C@H]3Oc4ccccc4S(=O)(=O)N4CCC[C@@H]34)cc21
Response line: Criterion not met

Prompt line: Field entry: [N-]=[N+]=NCc1ccccc1[C@@H]1OC(c2ccc(OCCCO)cc2)=N[C@]1(CCS(=O)(=O)c1ccccc1)C(=O)NCC(O)CO (stereo partly specified)
Response line: Criterion not met

Prompt line: Field entry: CCCCCCc1nc(C2CC2)cc2c1[Si](C(C)C)(C(C)C)O[C@H]2c1ccccc1
Response line: Criterion not met

Prompt line: Field entry: COCCOC(=O)N1C(=O)[C@@]2(c3cc(C#Cc4ccc(OC)cc4)ccc31)[C@H](c1ccccc1OCCO)N1[C@H](c3ccccc3)[C@H](c3ccccc3)OC(=O)[C@H]1[C@@H]2C(=O)N1CCCCCCC1
Response line: Criterion met

Prompt line: Field entry: CN1C(=O)C2C=CC(C(O)C#Cc3ccccc3)N(Nc3ccccc3)C2C1=O (stereo unspecified)
Response line: Criterion met

Prompt line: Field entry: CCCC[C@@H]1C[C@H]1[C@@H](NC(=O)Cc1ccccc1)c1ccc(-c2ccccc2)cc1
Response line: Criterion not met

Prompt line: Field entry: COc1ccc([Si](C)(C)[C@@H]2[C@@H](CC(=O)N3Cc4ccccc4C[C@H]3CO)O[C@]3(C(=O)N(Cc4cccc(N5C(=O)c6cccc7cccc5c67)c4)c4ccccc43)[C@H]2C)cc1
Response line: Criterion not met

Prompt line: Field entry: CN1C(=O)C2C=CC(C(O)c3cccc4ccccc34)N(N3CCCCC3)C2C1=O (stereo unspecified)
Response line: Criterion not met

---

assay_overview: MM1S cell viability effects, profiling panel, calcein-AM fluorescence, 48 h, basal (AID 1165);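 further: viability of MM1S multiple myeloma cells under basal unstimulated conditions; test concentration not given here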
condition_details: higher = more signal
Mark True for reported z-score of 0.7 or greater; mark False for anything smaller.

These solved cases illustrate the format of a correct answer.
CC1=C([C@H](O)CCc2ccccc2)[C@H](CO)[C@@H]2C(=O)N(C)C(=O)[C@@H]2C1 ... False
O=C1O[C@@H](c2ccccc2)[C@@H](c2ccccc2)N2[C@@H](c3ccc(O)cc3)[C@]3(C(=O)Nc4ccc(C#CC5=CCCCC5)cc43)[C@@H](C(=O)NC[C@H](O)c3ccccc3)[C@H]12 ... False
OCC1CC(c2ccccc2)=NO1 (stereo unspecified) ... False

Prompt line: In plain terms: is recorded z-score at least 0.7 for [N-]=[N+]=Nc1ccccc1[C@@H]1OC(c2ccc(OCCCO)cc2)=N[C@]1(Cc1ccccc1)C(=O)NCC(O)CO (stereo partly specified) ?
Response line: False

Prompt line: Field entry: CC(C)C[C@@H]1NC(=O)[C@@H]2C[C@H](C(=O)NCCCCCN)[C@H](c3ccc(O)cc3)N2C1=O
Response line: False

Prompt line: Field entry: CCOC(=O)C1=C[C@@H](c2ccccc2)N(S(=O)(=O)c2ccc(C)cc2)[C@H]1c1ccccc1Cl
Response line: False

Prompt line: Field entry: C[C@]1(C(=O)NC2CC2)c2ccccc2C(=O)N(Cc2ccccc2)[C@H]1c1ccc(CO)cc1
Response line: True

Prompt line: Field entry: COc1ccc(CCNC(=O)[C@@]2(Sc3ccc(C)cc3)CC(=O)N(C3Cc4ccccc4C3)[C@@H]2c2ccc(CO)cc2)cc1
Response line: False

---

study_system: Left-right determination factor 2 (Homo sapiens) (UniProt O00292)
Sequence (O00292 whole entry, looked up): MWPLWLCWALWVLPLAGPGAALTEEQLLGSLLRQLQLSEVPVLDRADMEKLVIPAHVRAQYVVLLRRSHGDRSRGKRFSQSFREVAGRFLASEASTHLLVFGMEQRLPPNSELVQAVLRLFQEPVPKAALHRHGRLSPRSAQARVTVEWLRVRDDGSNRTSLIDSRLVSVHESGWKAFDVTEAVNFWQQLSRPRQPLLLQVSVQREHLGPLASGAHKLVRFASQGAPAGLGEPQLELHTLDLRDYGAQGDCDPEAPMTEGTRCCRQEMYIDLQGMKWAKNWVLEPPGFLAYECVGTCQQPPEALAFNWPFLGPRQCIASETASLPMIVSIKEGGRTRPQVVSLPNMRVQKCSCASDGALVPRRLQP
assay_overview: LEFTY2 binders on small-molecule microarrays, primary screen, biochemical, small-molecule microarray, 635 nm fluorescence scan (AID 1110)
condition_details: LEFTY2 binding, higher = more signal
measured_quantity: composite z-score
A bare number is all that is needed in reply.

Would you please look over these solved cases?
CCOC(=O)C[C@H]1[C@H](OC(=O)c2cc3ccccc3oc2=O)[C@@H](NC(=O)c2ccc(-c3ccccc3)cc2)c2cc(OCCCO)ccc2N1C(=O)c1ccccc1 ... 1.16
C[C@]1(C(=O)NC2CC2)c2ccccc2C(=O)N(Cc2ccccc2)[C@H]1c1ccc(CO)cc1 ... -1.25
COc1ccc([Si](C)(C)[C@H]2[C@H](CCn3cc([C@H](O)c4ccccc4)nn3)O[C@@]3(C(=O)N(Cc4ccc(N5C(=O)c6cccc7cccc5c67)cc4)c4ccccc43)[C@@H]2C)cc1 ... -0.638
CC(C)(C)OC(=O)CC[C@@]1(C(=O)NCc2ccccc2)N=C(c2ccc(OCCCO)cc2)O[C@@H]1c1ccccc1N=[N+]=[N-] ... 0.529
CCCCCCc1nc(C2CC2)cc2c1[Si](C(C)C)(C(C)C)O[C@H]2c1ccccc1 ... 0.359

Prompt line: Look up composite z-score: COc1ccc([Si](C)(C)[C@@H]2[C@@H](CC(=O)N(CCO)Cc3ccccc3)O[C@]3(C(=O)N(Cc4cccc(N5CCOC5=O)c4)c4ccccc43)[C@H]2C)cc1
Response line: 0.538

Prompt line: Field entry: CCC(CC)C(O)C1C=CC2C(=O)N(c3ccccc3)C(=O)C2N1Nc1ccc(C(C)C)cc1 (configuration not stated)
Response line: -0.0146

---

Listing of recorded composite z-score by entry.
assay_overview: compound binding in COS7 lysate, probe aLAP1, primary screen, cell lysate, small-molecule microarray (AID 1124);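 further: lysate comes from COS7 cells expressing LAP1 and is applied at 0.3 µg/mL; score merges spot fluorescence near 667 nm with signal-to-noise over triplicate slides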
condition_details: probe aLAP1, fluorescence, higher = more signal
A bare number is all that is needed in reply.

Would you please look over these solved cases?
COc1ccccc1CN1C(=O)c2ccccc2[C@](Cc2ccccc2I)(C(=O)NCC(F)(F)F)[C@@H]1c1ccc(CO)cc1 ... 0.311
[N-]=[N+]=NCc1ccccc1C[C@@]1(C(=O)N2CCOCC2)N=C(c2ccc(OCCCO)cc2)O[C@@H]1c1ccccc1 ... 0.491
C#CCN([C@@H](Cc1ccc(O)cc1)C(=O)OC)[C@@H](/C=C/C1CC1)[C@H](O)Cc1ccccc1 ... 0.0995

Prompt line: Look up composite z-score: C=C(C(=O)CC[C@@H](OC(C)=O)c1ccc(CO)o1)C(C)C
Response line: 0.119

Prompt line: Field entry: [N-]=[N+]=NCc1ccccc1C[C@@]1(C(=O)NCc2ccccc2)N=C(c2ccc(OCCCO)cc2)O[C@@H]1c1ccccc1N=[N+]=[N-]
Response line: 0.472

Prompt line: Field entry: CC(C)(C)OC(=O)CC[C@]1(C(=O)NCc2ccccc2)N=C(c2ccc(OCCCO)cc2)O[C@H]1c1ccccc1CN=[N+]=[N-]
Response line: 0.583

Prompt line: Field entry: COc1cc2c(cc1OC)CN(C(=O)[C@@H]1[C@H]3C(=O)O[C@H](c4ccccc4)[C@H](c4ccccc4)N3[C@H](c3ccc(OCCO)cc3)[C@@]13C(=O)Nc1ccccc13)CC2
Response line: 0.141
